- measurementTarget: ATP-dependent Clp protease proteolytic subunit (Staphylococcus aureus (strain NCTC 8325), UniProt Q2G036)
- Sequence (Q2G036 whole entry): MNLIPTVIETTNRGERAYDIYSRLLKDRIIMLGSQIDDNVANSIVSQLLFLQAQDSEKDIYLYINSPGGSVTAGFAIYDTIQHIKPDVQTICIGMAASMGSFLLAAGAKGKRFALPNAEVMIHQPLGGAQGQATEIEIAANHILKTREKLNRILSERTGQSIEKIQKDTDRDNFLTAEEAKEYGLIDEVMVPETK
- assayMethodText: Binding affinity to N-terminal His6-sumo-tagged full length Staphylococcus aureus ClpP expressed in Escherichia coli […] assessed as shifting of melting peak of SaClpP by differential scanning calorimetry analysis
pEC50: −log10 of the molar value.
quantity: pEC50

>>> valuemeasured("CC(C)C[C@H](NC(=O)[C@H](Cc1c[nH]c2ccccc12)NC(=O)c1cc(Cl)ccc1Cl)B(O)O")
5.90
>>> valuemeasured("CC(C)C[C@H](NC(=O)CNC(=O)c1cc(Cl)ccc1Cl)B1OC(=O)CC(CC(=O)O)(C(=O)O)O1 (some centres not stated)")
4.70

---

- assayMethodText: Induction of hemolysis in sheep erythrocytes by measuring hemoglobin release incubated for 15 mins
- Type: cell-based, Ovis aries, Erythrocyte
Reported HC50 at 0.25 h by item:
quantity: HC50 at 0.25 h

>>> valuemeasured("COc1ccc(C(=O)N[C@@H](Cc2ccccc2)C(=O)N[C@@H](CC(C)C)B(O)O)c(C)c1")
"> 500 µM"
>>> valuemeasured("CC(C)Cc1ccc(C(C)C(=O)N[C@@H](Cc2ccc(O)cc2)C(=O)N[C@@H](CC(C)C)B(O)O)cc1 (some centres not stated)")
"> 500 µM"
>>> valuemeasured("CC(C)Cc1ccc(C(C)C(=O)N[C@@H](Cc2c[nH]c3ccccc23)C(=O)N[C@@H](CC(C)C)B(O)O)cc1 (some centres not stated)")
"> 500 µM"
>>> valuemeasured("CC(C)C[C@H](NC(=O)[C@H](Cc1ccccc1)NC(=O)c1cnccn1)B(O)O")
"> 500 µM"
>>> valuemeasured("CC(C)C[C@H](NC(=O)CNC(=O)c1cc(Cl)ccc1Cl)B(O)O")
"408 µM"
>>> valuemeasured("COc1ccc(C(=O)N[C@@H](Cc2ccccc2)C(=O)N[C@@H](CC(C)C)B(O)O)cc1")
"> 500 µM"
>>> valuemeasured("CC(C)C[C@H](NC(=O)[C@H](Cc1c[nH]c2ccccc12)NC(=O)c1cc(Cl)ccc1Cl)B(O)O")
"> 500 µM"

---

- measurementTarget: ATP-dependent Clp protease proteolytic subunit (Staphylococcus aureus (strain NCTC 8325))
- assayMethodText: Inhibition of N-terminal His6-sumo-tagged full length Staphylococcus aureus ClpP expressed in Escherichia coli […] assessed as enzyme activity recovery level at 20-fold molar excess pre-incubated for 10 mins before Suc-LY-AMC addition and measured after 1 hr followed by dialysis up to 72 hrs by fluorescence based assay relative to control
- Parameters: scale not given: the % may be the effect or the level left
Reported Activity by item:
quantity: Activity (%)

>>> valuemeasured("CC(C)C[C@H](NC(=O)[C@H](Cc1c[nH]c2ccccc12)NC(=O)c1cc(Cl)ccc1Cl)B(O)O")
100
>>> valuemeasured("CC(C)Cc1ccc(C(C)C(=O)N[C@@H](Cc2c[nH]c3ccccc23)C(=O)N[C@@H](CC(C)C)B(O)O)cc1 (some centres undefined)")
100
>>> valuemeasured("COc1ccc(C(=O)N[C@@H](Cc2ccccc2)C(=O)N[C@@H](CC(C)C)B(O)O)cc1")
100
>>> valuemeasured("CC(C)C[C@H](NC(=O)CNC(=O)c1cc(Cl)ccc1Cl)B1OC(=O)CC(CC(=O)O)(C(=O)O)O1 (some centres undefined)")
100

---

- measurementTarget: ATP-dependent Clp protease proteolytic subunit (Staphylococcus aureus (strain NCTC 8325))
- assayMethodText: Inhibition of N-terminal His6-sumo-tagged full length Staphylococcus aureus ClpP expressed in Escherichia coli […] (DE3) assessed as Kinact/Ki ratio […] and measured after 1 hr by fluorescence based assay
Label condition not met if Ratio falls below 7 ×10² /s.M; label condition met in every other case.

>>> class("CC(C)Cc1ccc(C(C)C(=O)N[C@@H](Cc2c[nH]c3ccccc23)C(=O)N[C@@H](CC(C)C)B(O)O)cc1 (some centres not stated)")
"condition met"
>>> class("CC(C)C[C@H](NC(=O)[C@H](Cc1ccccc1)NC(=O)c1cnccn1)B(O)O")
"condition not met"
>>> class("COc1ccc(C(=O)N[C@@H](Cc2ccccc2)C(=O)N[C@@H](CC(C)C)B(O)O)c(C)c1")
"condition met"
>>> class("CC(C)C[C@H](NC(=O)[C@H](Cc1c[nH]c2ccccc12)NC(=O)c1cc(Cl)ccc1Cl)B(O)O")
"condition met"
>>> class("CC(C)C[C@H](NC(=O)CNC(=O)c1cc(Cl)ccc1Cl)B(O)O")
"condition not met"
>>> class("COc1ccc(C(=O)N[C@@H](Cc2ccccc2)C(=O)N[C@@H](CC(C)C)B(O)O)cc1")
"condition not met"

---

- measurementTarget: ATP-dependent Clp protease proteolytic subunit (Staphylococcus aureus (strain NCTC 8325))
- assayMethodText: Inhibition of N-terminal His6-sumo-tagged full length Staphylococcus aureus ClpP expressed in Escherichia coli […] assessed as enzyme activity recovery level at 20-fold molar excess pre-incubated for 10 mins before Suc-LY-AMC addition and measured after 1 hr followed by dialysis up to 72 hrs by fluorescence based assay relative to control
- Set-up: scale not given: the % may be the effect or the level left
quantity: Activity (%)

>>> valuemeasured("CC(C)C[C@H](NC(=O)[C@H](Cc1ccccc1)NC(=O)c1cnccn1)B(O)O")
100
>>> valuemeasured("COc1ccc(C(=O)N[C@@H](Cc2ccccc2)C(=O)N[C@@H](CC(C)C)B(O)O)c(C)c1")
100
>>> valuemeasured("CC(C)Cc1ccc(C(C)C(=O)N[C@@H](Cc2ccc(O)cc2)C(=O)N[C@@H](CC(C)C)B(O)O)cc1 (stereo partly drawn)")
100

---

Reported pEC50 by item:
- measurementTarget: ATP-dependent Clp protease proteolytic subunit (Staphylococcus aureus (strain NCTC 8325))
- assayMethodText: Inhibition of ClpP in methicillin-resistant Staphylococcus aureus ATCC 33591 assessed as reduction in bacteria-induced hemolysis of sheep erythrocytes by measuring hemoglobin release incubated for 15 mins
pEC50: −log10 of the molar value.
quantity: pEC50

>>> valuemeasured("CC(C)C[C@H](NC(=O)CNC(=O)c1cc(Cl)ccc1Cl)B(O)O")
5.44
>>> valuemeasured("COc1ccc(C(=O)N[C@@H](Cc2ccccc2)C(=O)N[C@@H](CC(C)C)B(O)O)c(C)c1")
4.83
>>> valuemeasured("COc1ccc(C(=O)N[C@@H](Cc2ccccc2)C(=O)N[C@@H](CC(C)C)B(O)O)cc1")
5.48
>>> valuemeasured("CC(C)Cc1ccc(C(C)C(=O)N[C@@H](Cc2ccc(O)cc2)C(=O)N[C@@H](CC(C)C)B(O)O)cc1 (some centres undefined)")
5.02

---

- measurementTarget: ATP-dependent Clp protease proteolytic subunit (Staphylococcus aureus (strain NCTC 8325), UniProt Q2G036)
- Sequence (Q2G036 whole entry): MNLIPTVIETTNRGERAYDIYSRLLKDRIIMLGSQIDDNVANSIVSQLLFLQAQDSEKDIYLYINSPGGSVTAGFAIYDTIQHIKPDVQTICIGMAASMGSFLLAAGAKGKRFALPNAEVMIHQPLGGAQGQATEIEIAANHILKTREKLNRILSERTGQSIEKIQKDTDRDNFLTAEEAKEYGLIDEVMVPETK
- assayMethodText: Binding affinity to N-terminal His6-sumo-tagged full length Staphylococcus aureus ClpP expressed in Escherichia coli […] by ITC analysis
pKd: −log10 of the molar value.
quantity: pKd

>>> valuemeasured("CC(C)C[C@H](NC(=O)CNC(=O)c1cc(Cl)ccc1Cl)B1OC(=O)CC(CC(=O)O)(C(=O)O)O1 (stereo partly specified)")
5.14

---

- measurementTarget: ATP-dependent Clp protease proteolytic subunit (Staphylococcus aureus (strain NCTC 8325), UniProt Q2G036)
- assayMethodText: Inhibition of N-terminal His6-sumo-tagged full length Staphylococcus aureus ClpP expressed in Escherichia coli […] pre-incubated for 10 mins before Suc-LY-AMC addition and measured after 1 hr by fluorescence based assay
pIC50: −log10 of the molar value.
Reported pIC50 by item:
quantity: pIC50

>>> valuemeasured("CC(C)Cc1ccc(C(C)C(=O)N[C@@H](Cc2c[nH]c3ccccc23)C(=O)N[C@@H](CC(C)C)B(O)O)cc1 (some centres not stated)")
5.72
>>> valuemeasured("CC(C)C[C@H](NC(=O)[C@H](Cc1ccccc1)NC(=O)c1cnccn1)B(O)O [BORTEZOMIB]")
5.28
>>> valuemeasured("COc1ccc(C(=O)N[C@@H](Cc2ccccc2)C(=O)N[C@@H](CC(C)C)B(O)O)cc1")
5.72
>>> valuemeasured("COc1ccc(C(=O)N[C@@H](Cc2ccccc2)C(=O)N[C@@H](CC(C)C)B(O)O)c(C)c1")
5.82
>>> valuemeasured("CC(C)C[C@H](NC(=O)[C@H](Cc1c[nH]c2ccccc12)NC(=O)c1cc(Cl)ccc1Cl)B(O)O")
6.05
>>> valuemeasured("CC(C)Cc1ccc(C(C)C(=O)N[C@@H](Cc2ccc(O)cc2)C(=O)N[C@@H](CC(C)C)B(O)O)cc1 (some centres not stated)")
5.85
